- Experimental system: human PAD4 (Homo sapiens)
- Construct: human PAD4 (NM_012387), A2-P663, was PCR amplified; His-SUMO (N, cleaved yes)
- Method notes: In vitro PAD4 BAEE biochemical assay
- Run parameters: BAEE substrate 3 mM, 5 nM PAD4, 2 mM calcium chloride; geometric mean of multiple experiments
Measurement type: IC50 (nM)

(I) COc1cc(C(=O)N2CCC[C@@H](N)C2)cc2nc(-c3cc4ccc5cc4n3CCCCCCC(C)(C)C(=O)N[C@@H]5C)n(C3CC3)c12 [Example 160]
(II) C[C@@H]1[C@H](N)CCCN1C(=O)c1cc(F)c2c(c1)nc(-c1cc3ccc4nc3n1CCCCCc1nc(Cl)ccc1C(=O)N[C@@H]4C)n2C [Example 741]
(III) C[C@H]1NC(=O)[C@@H]2C[C@H]2CC(F)(F)CCCn2c(-c3nc4cc(C(=O)N[C@H]5CNCC[C@@H]5F)c(F)cc4n3C)cc3ccc1nc32 [Example 625]
Exercise: Hello, I need these entries ordered by IC50, highest reading first. Thanks! In plain terms: list the labels in the order you were asked to.
Solution: I, II, III

---

- Experimental system: human PAD4 (Homo sapiens, UniProt Q9UM07)
- Construct: human PAD4 (NM_012387), A2-P663, was PCR amplified; His-SUMO (N, cleaved yes)
- Sequence (Q9UM07 2-663): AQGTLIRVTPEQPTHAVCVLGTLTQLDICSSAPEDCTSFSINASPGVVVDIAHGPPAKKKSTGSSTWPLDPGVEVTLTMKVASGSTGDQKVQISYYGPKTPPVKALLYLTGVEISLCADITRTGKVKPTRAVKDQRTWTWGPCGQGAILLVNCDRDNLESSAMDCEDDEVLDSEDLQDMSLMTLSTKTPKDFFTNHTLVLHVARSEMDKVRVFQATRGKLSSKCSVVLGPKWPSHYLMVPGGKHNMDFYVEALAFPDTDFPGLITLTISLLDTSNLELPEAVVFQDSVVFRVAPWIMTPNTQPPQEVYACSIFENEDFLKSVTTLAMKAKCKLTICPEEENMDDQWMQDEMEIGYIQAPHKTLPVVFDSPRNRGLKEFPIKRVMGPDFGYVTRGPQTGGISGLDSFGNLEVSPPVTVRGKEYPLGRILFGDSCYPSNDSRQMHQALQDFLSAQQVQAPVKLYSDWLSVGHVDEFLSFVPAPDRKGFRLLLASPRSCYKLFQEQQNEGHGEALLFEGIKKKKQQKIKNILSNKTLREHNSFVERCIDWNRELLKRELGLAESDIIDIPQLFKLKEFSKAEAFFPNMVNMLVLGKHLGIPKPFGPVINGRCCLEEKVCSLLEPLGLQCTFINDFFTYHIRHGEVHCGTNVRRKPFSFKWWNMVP
- Method notes: In vitro PAD4 BAEE biochemical assay
- Run parameters: BAEE substrate 3 mM, 5 nM PAD4, 2 mM calcium chloride; geometric mean of multiple experiments
- Excerpt: In Vitro PAD4 BAEE Biochemical Assay The enzymatic activity of human PAD4 was monitored in a biochemical assay in the presence or absence of compounds using the small peptidyl arginine mimic BAEE (Na-Benzoyl-L-arginine ethyl ester hydrochloride) as substrate. PAD4 activity led to deimination of BAEE and release of ammonia. Levels of ammonia were monitored by using an amine coupling reaction and were indicative of PAD4 enzymatic activity. […]
Measurement type: IC50 (nM)

# example entries with known answers
[[record]]
compound = "COc1cc(C(=O)N2C[C@H](N)[C@@H]3CC[C@H]2C3)cc2nc(-c3cc4ccc5nc4n3CCCCCCCN(C(C)=O)[C@@H]5C)n(C)c12"
val = 82

[[record]]
compound = "CO[C@@H]1CCN(C(=O)c2cc(F)c3c(c2)nc(-c2cc4ccc5nc4n2CCCCCCC(c2ccccn2)C(=O)N[C@@H]5C)n3C2CC2)C[C@@H]1N (stereo partly drawn)"
val = 31

[[record]]
compound = "COc1cc(C(=O)N2CCC[C@@H](N)C2)cc2nc(-c3cc4ccc5nc4n3CCCCCC[C@@H](C)C(=O)N[C@@H]5C)n(C)c12"
val = 70


(A) CO[C@@H]1CCN(C(=O)c2cc(F)c3c(c2)nc(-c2cc4ccc5nc4n2CCCCCc2cncc(Cl)c2C(=O)N[C@@H]5C)n3C2CC2)C[C@@H]1N
(B) COc1cc(C(=O)N[C@H]2CNCC[C@@H]2F)cc2nc(-c3cc4ccc5nc4n3CCCCCCC(C)(C)C(=O)N[C@@H]5C)n(C)c12 [Example 178]
(C) COc1cc(C(=O)N2CCC[C@@H](N)[C@H]2C)cc2nc(-c3cc4ccc5nc4n3CC(F)(F)CCC[C@]3(F)C[C@H]3C(=O)N[C@@H]5C)n(C)c12
Exercise: Returns the items ordered by IC50, from maximum to minimum. In plain terms: list the labels in the order you were asked to.
Solution: B, A, C

---

- Experimental system: human PAD4 (Homo sapiens, UniProt Q9UM07)
- Construct: human PAD4 (NM_012387), A2-P663, was PCR amplified; His-SUMO (N, cleaved yes)
- Method notes: In vitro PAD4 BAEE biochemical assay
- Run parameters: BAEE substrate 3 mM, 5 nM PAD4, 2 mM calcium chloride; geometric mean of multiple experiments
pIC50: −log10 of the molar value.
Measurement type: pIC50

[[record]]
smi = "CO[C@@H]1CCN(C(=O)c2cc(F)c3c(c2)nc(-c2cc4ccc5nc4n2CCCCC[C@]2(F)C[C@H]2C(=O)N[C@@H]5C)n3C2CC2)C[C@@H]1N"
experimental_system = "human PAD4 (Homo sapiens, UniProt Q9UM07)"
val = 7.51


(P) CO[C@H]1C[C@@H]1n1c(-c2cc3ccc4nc3n2CC(F)(F)CCC[C@@H]2C[C@H]2C(=O)N[C@@H]4C)nc2cc(C(=O)N3CCC[C@@H](N)[C@H]3C)cc(F)c21
(Q) COc1cc(C(=O)N2CCC[C@@H](N)C2)cc2nc(-c3cc4ccc5nc4n3CCCCC[C@H](OC)C(C)(C)C(=O)N[C@@H]5C)n(C)c12
Exercise: Form field 'greater pIC50' accepts P or Q ; which applies? Your answer should be the label attached to the chosen record.
Solution: P

---

- Experimental system: human PAD4 (Homo sapiens)
- Construct: human PAD4 (NM_012387), A2-P663, was PCR amplified; His-SUMO (N, cleaved yes)
- Method notes: In vitro PAD4 BAEE biochemical assay
- Run parameters: BAEE substrate 3 mM, 5 nM PAD4, 2 mM calcium chloride; geometric mean of multiple experiments
pIC50: −log10 of the molar value.
Measurement type: pIC50

(I) COc1cc(C(=O)N2C[C@@H](O)C[C@@H](N)[C@H]2C)cc2nc(-c3cc4ccc5nc4n3CCCCCCC(C)(C)C(=O)N[C@@H]5C)n(C)c12
(II) COc1cc(C(=O)N2C[C@H](N)[C@@H]3CC[C@H]2C3)cc2nc(-c3cc4ccc5nc4n3CC(F)(F)CCC[C@]3(F)C[C@H]3C(=O)N[C@@H]5C)n(C3CC3)c12
(III) COc1cc(C(=O)N[C@@H]2CNCCC2(F)F)cc2nc(-c3cc4ccc5nc4n3CCCCCCC(C)(C)C(=O)N[C@@H]5C)n(C)c12
Exercise: Order the entries above from lowest to highest pIC50. In plain terms: list the labels in the order you were asked to.
Solution: III, I, II

---

- Experimental system: human PAD4 (Homo sapiens)
- Construct: human PAD4 (NM_012387), A2-P663, was PCR amplified; His-SUMO (N, cleaved yes); made in house; host or cells: E. coli BL21(DE3)
- Method notes: In vitro PAD4 BAEE biochemical assay
- Run parameters: BAEE substrate 3 mM, 5 nM PAD4, 2 mM calcium chloride; geometric mean of multiple experiments
pIC50: −log10 of the molar value.
Measurement type: pIC50

# example entries with known answers
[[record]]
molecule = "COc1cc(C(=O)N2[C@H]3CC[C@@H]2[C@H](N)C3)cc2nc(-c3cc4ccc5nc4n3C[C@H]3C[C@H]3CCCC(C)(C)C(=O)N[C@@H]5C)n(C)c12 [Example 145]"
val = 7.24

[[record]]
molecule = "COc1cc(C(=O)N2CC[C@@H](OC)[C@@H](N)C2)cc2nc(-c3cc4ccc5nc4n3CCC/C=C/c3ccccc3C(=O)N[C@@H]5C)n(C)c12 [Example 496]"
val = 6.90

[[record]]
molecule = "COc1cc(C(=O)N2CCC[C@@H](N)C2)cc2nc(-c3cc4ccc5nc4n3C[C@H]3C[C@@H]3CCCC(C)C(=O)N[C@@H]5C)n(C)c12 (stereo partly drawn) [Example 166]"
val = 7.31


(A) COc1cc(C(=O)N[C@H]2CNCC[C@@H]2F)cc2nc(-c3cc4ccc5nc4n3CCCCCc3c(noc3C)C(=O)N[C@@H]5C)n(C)c12 [Example 398]
(B) COc1cc(C(=O)N2C[C@H](N)C[C@@H](F)C2)cc2nc(-c3cc4ccc5nc4n3CCCCCc3nc4ccsc4cc3C(=O)N[C@@H]5C)n(C)c12 [Example 794]
Exercise: Form field 'greater pIC50' accepts A or B ; which applies? Your answer should be the label attached to the chosen record.
Solution: B

---

- Experimental system: human PAD4 (Homo sapiens, UniProt Q9UM07)
- Construct: human PAD4 (NM_012387), A2-P663, was PCR amplified; His-SUMO (N, cleaved yes); made in house; host or cells: E. coli BL21(DE3)
- Method notes: In vitro PAD4 BAEE biochemical assay
- Run parameters: BAEE substrate 3 mM, 5 nM PAD4, 2 mM calcium chloride; geometric mean of multiple experiments
pIC50: −log10 of the molar value.
Measurement type: pIC50

# example entries with known answers
[[record]]
molecule = "COCCn1c(-c2cc3ccc4nc3n2CCCCC[C@@H]2C[C@H]2C(=O)N[C@@H]4C)nc2cc(C(=O)N3CCC[C@@H](N)C3)cc(OC)c21 [Example 433]"
measurement_type = "pIC50"
val = 7.34

[[record]]
molecule = "C[C@H]1NC(=O)C(C)(C)CCCCCCn2c(-c3nc4cc(C(=O)N[C@H]5CNCC[C@@H]5F)c(F)cc4n3C3CC3)cc3ccc1nc32 [Example 179]"
measurement_type = "pIC50"
val = 7.21

[[record]]
molecule = "C[C@H]1NC(=O)[C@H]2[C@H](CCCCCn3c(-c4nc5cc(C(=O)N[C@H]6CNCC[C@@H]6F)c(F)cc5n4C4CC4)cc4ccc1nc43)C2(F)F [Example 394]"
measurement_type = "pIC50"
val = 7.64


(1) COc1cc(C(=O)N2CC[C@@H](OC)[C@@H](N)C2)cc2nc(-c3cc4ccc5nc4n3CCCCCc3ccncc3C(=O)N[C@@H]5C)n(C)c12 [Example 649]
(2) C[C@H]1NC(=O)c2ccc(Cl)nc2CCCCCn2c(-c3nc4cc(C(=O)N5C[C@H](N)[C@@H]6CC[C@H]5C6)cc(F)c4n3[C@H]3C[C@H]3F)cc3ccc1nc32 [Example 846]
Exercise: Form field 'greater pIC50' accepts 1 or 2 ; which applies? Your answer should be the label attached to the chosen record.
Solution: 2

Each recorded value in this set is attributed to patent US11976083B2.
